assay: MM1S myeloma cell viability, profiling panel, resazurin fluorescence, basal, 24 h, PK04 Diversity Set (AID 1174); conditions: higher = more signal, called active from +8 up or from −8 down;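 also: MM1S multiple myeloma cell line; test concentration not given here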
Activity calls are given as the source filed them.
Parameter: z-score. Scope: all listed entries.

Some solved cases for reference:
Compound	z-score
COc1ccc([Si](C)(C)[C@H]2[C@H](CC(=O)N3Cc4ccccc4C[C@H]3CO)O[C@@]3(C(=O)N(Cc4ccc(N5C(=O)c6cccc7cccc5c67)cc4)c4ccccc43)[C@@H]2C)cc1	-2 (inactive)
CC1(C)C(=O)C(c2ccccc2)=C2CN3C(=O)N(CCc4ccccc4)C(=O)C3(Cc3ccc(F)cc3)C=C21 (stereo not drawn)	-2.18 (inactive)

Problem: What does the record list as z-score for CCCCCN1CC=CC23O[C@@H]4C=CCOC(=O)[C@@H]4[C@H]2C(=O)N(CCO)[C@@H]3C1=O (stereo partly drawn) ?
Solution: 0.0974 (inactive)

----------
biological target: NADPH oxidase 4 (Homo sapiens) (UniProt Q9NPH5); assay: NOX4-dependent H2O2 signal modulators, primary screen, NOX inhibitor project, cell-based, HEK293-NOX4, tetracycline-induced, Amplex Red fluorescence (AID 1160); settings: 45 min, higher = more signal, called active from +8 up or from −8 down
Sequence (Q9NPH5 whole entry, looked up): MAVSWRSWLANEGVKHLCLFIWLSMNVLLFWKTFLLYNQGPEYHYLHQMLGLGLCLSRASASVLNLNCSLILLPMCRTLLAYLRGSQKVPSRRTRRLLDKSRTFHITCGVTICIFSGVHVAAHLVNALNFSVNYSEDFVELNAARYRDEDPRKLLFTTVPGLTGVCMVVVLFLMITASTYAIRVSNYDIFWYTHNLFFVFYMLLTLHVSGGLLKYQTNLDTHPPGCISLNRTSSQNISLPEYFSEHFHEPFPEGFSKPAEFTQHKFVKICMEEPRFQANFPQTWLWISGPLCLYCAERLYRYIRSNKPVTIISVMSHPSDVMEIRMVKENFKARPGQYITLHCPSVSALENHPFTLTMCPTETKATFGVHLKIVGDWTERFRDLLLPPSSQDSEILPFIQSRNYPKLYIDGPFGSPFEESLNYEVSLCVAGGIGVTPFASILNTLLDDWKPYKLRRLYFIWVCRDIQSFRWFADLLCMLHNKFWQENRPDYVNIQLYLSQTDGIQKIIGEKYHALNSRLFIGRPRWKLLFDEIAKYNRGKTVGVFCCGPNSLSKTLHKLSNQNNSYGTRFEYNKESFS
Measured endpoint: z-score
Format: numeric value only, no unit, no commentary.

Problem: What does the record list as z-score for C=C(CCCC)C(=O)CC[C@H](OC(C)=O)c1ccc(OCCO)cc1 ?
Solution: -1.5

----------
tested on: glycogen synthase kinase-3 (GSK3A per assay name; protocol says GSK3B); assay: GSK3 binders on small-molecule microarrays, primary screen, biochemical, small-molecule microarray, 635 nm fluorescence, GSK3A (AID 1103); conditions: small-molecule microarray binding, fluorescence 635 nm; higher = more signal; also: the record names both GSK3A and GSK3B
Parameter: composite z-score. Scope: all listed entries.

Some solved cases for reference:
Compound	composite z-score
COC(=O)[C@@]1(Cc2ccccc2CN=[N+]=[N-])N=C(c2ccc(OCCCO)cc2)O[C@H]1c1ccccc1	-0.0487
C=CCC(OC(C)=O)[C@@H]1[C@@H](N(Cc2cccc3ccccc23)C(=O)c2ccc(-c3ccccc3)cc2)c2cc(OCCCO)ccc2N1C(=O)c1ccc(-c2ccccc2)cc1 (some centres undefined)	-0.0259
CCN(CC)c1ccc(N2CC=CC34O[C@@H]5C=CCCOC(=O)C5[C@H]3C(=O)N(CCO)[C@@H]4C2=O)cc1 (some centres undefined)	-0.908
CCCCCN1CC=CC23O[C@@H]4/C=C\CCC(C)OC(=O)C4[C@H]2C(=O)N(CCCCCCO)[C@@H]3C1=O (some centres undefined)	-0.459
COCCOC(=O)N1C(=O)[C@@]2(c3cc(C#CCC(C(=O)OC)C(=O)OC)ccc31)[C@H](C(=O)NC[C@H](O)c1ccccc1)[C@H]1C(=O)O[C@H](c3ccccc3)[C@H](c3ccccc3)N1[C@@H]2c1ccc(OCCO)cc1	1.35

Problem: What does the record list as composite z-score for COc1ccc([Si](C)(C)[C@H]2[C@H](CCO)O[C@@]3(C(=O)N(Cc4ccc(N5C(=O)c6ccccc6Oc6ccccc65)cc4)c4ccccc43)[C@@H]2C)cc1 ?
Solution: -1.96

Problem: Subsequent entry: C=CCNC(=O)[C@@H]1[C@H]2C(=O)O[C@H](c3ccccc3)[C@H](c3ccccc3)N2[C@H](c2ccc(OCCO)cc2)[C@@]12C(=O)N(C(=O)OCCOC)c1ccc(C#CCCO)cc12
Solution: 1.28

Problem: Subsequent entry: CCOC(=O)C=Cc1cc(F)ccc1O
Solution: -0.126

Problem: Subsequent entry: CO[C@H]1O[C@H](CO)[C@@H](OC(=O)Nc2cccc(F)c2)[C@H](OC(=O)Nc2ccccc2-c2ccccc2)[C@H]1OC(=O)Nc1ccccc1-c1ccccc1
Solution: 1.33

Problem: Subsequent entry: O=C1C2C=CC(C(O)c3ccc(I)cc3)N(Nc3ccccc3)C2C(=O)N1c1ccccc1 (centres undefined)
Solution: 1.29

Problem: Subsequent entry: COCCCNC(=O)[C@@]1(Sc2ccc(C)cc2)CC(=O)N(Cc2ccccc2Cl)[C@@H]1c1ccc(CO)cc1I
Solution: -1.05

Problem: Subsequent entry: CC(C)C[C@@H]1NC(=O)[C@@]23C(=O)N[C@@H](Cc4ccccc4)C2[C@H](C)[C@@]2(C)O[C@H]2C3/C=C/C/C=C\CNC(=O)[C@@H](C)NC1=O (some centres undefined)
Solution: -0.608

Problem: Subsequent entry: CCCC=C(CCC)[C@@H](NS(=O)(=O)c1cccc2cccnc12)c1ccc(-c2ccccc2)cc1
Solution: 1.32

Problem: Subsequent entry: C=C(C)C1CCC(C(O)C2C=CC3C(=O)N(C)C(=O)C3N2Nc2cc(OC)c(OC)c(OC)c2)CC1 (centres undefined)
Solution: 1.17
